Tested on: T47D
TEST_DETAILS: NCI tumour cell line growth inhibition, 48 h
Calls of active or inactive are those of the source. No stated cut-off is given here; in the data, active = GI50 up to about 1.1 µM and inactive = higher.
MEASUREMENT_LABEL: GI50

COMPOUND: CC(=O)OC12c3ccccc3-c3ccccc3C1C1C(=O)N(C)C(=O)C12Cl (stereo unspecified)
GI50: > 10 µM (inactive)

COMPOUND: [N-]=[N+]=C1C(=O)c2ccccc2-c2ccccc21
GI50: 28.3 µM (inactive)

COMPOUND: COc1cccc(N2C(=O)/C(=C\c3ccccc3)SC2c2cc(OC)c(OC)c(OC)c2)c1 (stereo unspecified)
GI50: 17.4 µM (inactive)

**Query** Query: GI50; subject: `CSc1ccc(/C=C2\N=C(c3ccccc3)N(c3nc4cc(C)c(C)cc4s3)C2=O)cc1`
**Result** 44.8 µM (inactive)

**Query** Query: GI50; subject: `CC(C)(C)OC(=O)N(CCCCNC(=O)c1ccccc1)CCCNC(=O)c1ccccc1`
**Result** 74.3 µM (inactive)

**Query** Query: GI50; subject: `O=C(O)/C(Cc1c[nH]nn1)=N\O`
**Result** > 100 µM (inactive)

* * *

Quick reference for GI50 among some compounds
Tested on: SR
TEST_DETAILS: NCI tumour cell line growth inhibition, 48 h
Calls of active or inactive are those of the source. No stated cut-off is given here; in the data, active = GI50 up to about 1.1 µM and inactive = higher.

COMPOUND: O=C([C@H](O)[C@@H](O)c1ccc(Br)cc1)C12CC3CC(CC(C3)C1)C2
MEASUREMENT_LABEL: GI50
RESULT_VALUE: 34.8 µM (inactive)

**Query** Query: GI50; subject: `COC1=CC(=O)C2=C(C1=O)[C@H]1CC[C@]3(C)[C@@H](OC(C)=O)CC[C@H]3[C@@H]1CC2`
**Result** 37.4 µM (inactive)

**Query** Query: GI50; subject: CC(C)(C)c1cc(C2COC(=O)COCCOCC(=O)OCCOCCO2)cc(C(C)(C)C)c1O (configuration not stated)
**Result** 21.8 µM (inactive)

**Query** Query: GI50; subject: CN(C)c1ccc(/C=C(\NC(=O)c2ccccc2)C2=NC(CCC(=O)O)C(=O)O2)cc1 (configuration not stated)
**Result** 49.2 µM (inactive)

**Query** Query: GI50; subject: `CCCC(CCC(=O)O)(CCC(=O)O)[N+](=O)[O-]`
**Result** > 100 µM (inactive)

**Query** Query: GI50; subject: `CCCCc1ccc(Nc2nc(SC)c3[nH]cnc3n2)cc1`
**Result** 2.01 µM (inactive)

**Query** Query: GI50; subject: `CC1(C)C(C#N)=[N+]([O-])C(C)(C)N1O`
**Result** > 100 µM (inactive)

**Query** Query: GI50; subject: CCN(CC)CCCC(C)Nc1cc(/C=C/c2ccc(Cl)cc2)nc2cc(N(C)C)ccc12 (configuration not stated)
**Result** 1.25 µM (inactive)

* * *

Tested on: SF-268
TEST_DETAILS: NCI tumour cell line growth inhibition, 48 h
Activity calls are given as the source filed them. Cut-off read from the data, not from the text of the source: active = GI50 up to about 1.1 µM and inactive = higher.
Respond with a class label; see active, inactive

COMPOUND: COc1ccc2c(c1)c(=O)c1c(NCCN(C)C)ccc3c(=O)n(CCN(C)C)c(=O)n2c31
TEST_SYSTEM: SF-268
DISCRETE_LABEL: active

COMPOUND: O=C1c2ccccc2C(=O)c2nc(-c3ccccc3)c(-c3ccccc3)nc21
TEST_SYSTEM: SF-268
DISCRETE_LABEL: inactive

COMPOUND: O=c1ccn(C2OC(CN(O)CCC3C(CO)OC(n4ccc(=O)[nH]c4=O)C3O)C(O)C2O)c(=O)[nH]1 (stereo not drawn)
TEST_SYSTEM: SF-268
DISCRETE_LABEL: inactive

COMPOUND: COC(CC1(OC)OC(=O)C=C1N)OC (stereo not drawn)
TEST_SYSTEM: SF-268
DISCRETE_LABEL: inactive

COMPOUND: C1=CC(N(c2ccccc2)C2C=CCCC2)CCC1 (stereo not drawn)
TEST_SYSTEM: SF-268
DISCRETE_LABEL: inactive

COMPOUND: O=C1N[C@@H](O)[C@@H]2ON=C(c3ccccc3)[C@H]12
TEST_SYSTEM: SF-268
DISCRETE_LABEL: inactive

**Query** Please let me know the test result on file for `ClCCN1CCOC1=C1C=CC=C1` .
**Result** inactive

**Query** Please let me know the test result on file for `CN(C=O)/C=C/c1cc(O)ccc1O` .
**Result** inactive
